Biological target: SV2A (Macaca fascicularis)
Construct: The current study evaluates [^18F]UCB-H pharmacokinetics in healthy NHPs; from tissue; host or cells: brain of living healthy cynomolgus monkeys (in vivo PET)
Sequence (Q4R4X3 whole entry): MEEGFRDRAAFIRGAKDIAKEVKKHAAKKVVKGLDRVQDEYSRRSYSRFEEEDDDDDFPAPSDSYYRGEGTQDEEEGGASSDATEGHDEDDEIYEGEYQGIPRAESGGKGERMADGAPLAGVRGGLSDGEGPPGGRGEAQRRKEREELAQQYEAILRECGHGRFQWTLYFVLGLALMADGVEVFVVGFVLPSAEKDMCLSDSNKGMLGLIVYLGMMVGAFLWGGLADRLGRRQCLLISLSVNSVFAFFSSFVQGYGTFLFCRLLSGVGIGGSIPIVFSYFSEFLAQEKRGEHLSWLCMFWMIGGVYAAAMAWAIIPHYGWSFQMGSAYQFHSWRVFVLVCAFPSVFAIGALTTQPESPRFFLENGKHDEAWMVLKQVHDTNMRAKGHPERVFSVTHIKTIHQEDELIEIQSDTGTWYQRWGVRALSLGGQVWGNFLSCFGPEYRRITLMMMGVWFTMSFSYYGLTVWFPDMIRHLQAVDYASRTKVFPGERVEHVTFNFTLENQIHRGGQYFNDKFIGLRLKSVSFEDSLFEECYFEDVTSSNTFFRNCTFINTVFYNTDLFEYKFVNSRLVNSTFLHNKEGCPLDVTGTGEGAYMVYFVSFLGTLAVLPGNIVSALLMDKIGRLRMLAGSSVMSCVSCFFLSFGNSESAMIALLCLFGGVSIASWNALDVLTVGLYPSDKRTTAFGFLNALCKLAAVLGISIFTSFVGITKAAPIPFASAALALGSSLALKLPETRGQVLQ
Experiment: Displacement PET studies of [^18F]UCB-H
Type: in vivo, cynomolgus monkeys (Macaca fascicularis)
Conditions: after 5.0 mg/kg, based on brain uptake curves and fND ~6%
Endpoint label: maximum free concentration in brain

Query: GET /values?readout=maximum free concentration in brain&item= O=C1CC(c2cc(F)c(F)c(F)c2)CN1Cc1ccncc1F (stereo not shown) [[^19F]UCB-H]
Result: ~2.5 µM
